Every entry's value here was drawn from ChEMBL document CHEMBL1201862.

- System: OVCAR-4
- method description: NCI tumour cell line growth inhibition, 48 h
Activity calls are given as the source filed them. Cut-off read from the data, not from the text of the source: active = GI50 up to about 1.1 µM and inactive = higher.
measured metric: GI50

Recorded results for 3 molecules are shown here.
molecule	measured metric	reported value
O=C(O)[C@H](Cc1ccccc1)NCCN1CCC[C@H]1C(=O)O	GI50	3.74 µM (inactive)
Clc1ccccc1NN(Cc1ccccn1)c1ccccc1Cl	GI50	16.2 µM (inactive)
COc1ccc(C(=O)O)c(Cc2ccc3ccccc3c2)c1	GI50	> 100 µM (inactive)

Short answer for CC1=C(CO)C(=O)OC(C(C)C2CCC3C4CC5OC56C(O)C(N5CC5)=CC(=O)C6(C)C4CCC23C)C1 (stereo not given) : GI50 was 7.19 µM (inactive)

Short answer for `COc1cc2c3cc1Oc1cc(ccc1O)C[C@@H]1c4c(cc(OC)c(O)c4Oc4ccc(cc4)C[C@@H]3N(C)CC2)CC[N+]1(C)C` : GI50 was 73.8 µM (inactive)

###

- Test system: SW-620
- method description: NCI tumour cell line growth inhibition, 48 h
Activity calls are given as the source filed them. Rule as the data show it: active = GI50 up to about 1.1 µM and inactive = higher.
Can you answer with just one of these options? active, inactive

Use the examples below as a reference point.
molecule	assigned label
CCOc1ccc2nc(NC(=O)c3c/c(=N\NC(=O)C[N+](C)(C)C)c4ccc(O)cc4o3)sc2c1	inactive
COc1ccc(C(C#N)NC23CC4CC(CC(C4)C2)C3)cc1OC (stereo not drawn)	inactive
CC(C)NC(=O)OCc1c(COC(=O)NC(C)C)n(C)c2c1ccc1ccsc12	inactive
CCCC1NC(C#N)(C#N)C(CCC)NC1(C#N)C#N (stereo not drawn)	active
COc1cc2c3cc1Oc1cc(ccc1O)C[C@@H]1c4c(cc(OC)c(O)c4Oc4ccc(cc4)C[C@@H]3N(C)CC2)CC[N+]1(C)C	inactive

QUERY: Outcome? `CCCCCc1cc2c(cc1O)CC[C@@H]1[C@@H]2CC[C@]2(C)[C@@H](O)CC[C@@H]12`
RESULT: inactive

QUERY: Outcome? `Clc1ccccc1NN(Cc1ccccn1)c1ccccc1Cl`
RESULT: inactive

QUERY: Outcome? `OC(C/C=N/Nc1ccccc1)(C(F)(F)Cl)C(F)(F)Cl`
RESULT: inactive

QUERY: Outcome? `O=C1/C(=C(/Br)I)c2ccccc2-c2ccccc21`
RESULT: inactive

QUERY: Outcome? `COc1ccc2sc(-n3nc4ccccc4c3Nc3nc4ccc(OC)cc4s3)nc2c1`
RESULT: inactive

###

- System: NCI-H23
- method description: NCI tumour cell line growth inhibition, 48 h
Active and inactive are the calls of the source. Cut-off read from the data, not from the text of the source: active = GI50 up to about 1.1 µM and inactive = higher.
Can you answer with just one of these options? True = active, False = inactive

molecule	target	assigned label
CC1NC(=O)C2Cc3ccc(O)c(c3)Oc3ccc(cc3)C(O)C(C(=O)N2C)N(C)C(=O)C(C)NC(=O)C(Cc2ccc(O)cc2)N(C)C(=O)C(C)NC1=O (stereo not drawn)	NCI-H23	False

QUERY: Outcome? Nc1ccn(CC(O)c2cc3ccccc3[nH]2)c(=O)n1 (stereo not drawn)
RESULT: False

QUERY: Outcome? `CN(NC(=O)c1cccs1)C1=NCCCCN1`
RESULT: False

QUERY: Outcome? `O=C1NCCCNCCCNCCCNC(=O)c2cccc1n2`
RESULT: False

QUERY: Outcome? `Cc1cc(C)c2c(O)cc(-c3cccc(F)c3)nc2n1`
RESULT: True

QUERY: Outcome? `O=C(Oc1ccc(Cl)cc1[N+](=O)[O-])c1ccccc1`
RESULT: False

###

A collection of molecules and their measured GI50
- System: U-251
- method description: NCI tumour cell line growth inhibition, 48 h
Active and inactive are the calls of the source. Cut-off read from the data, not from the text of the source: active = GI50 up to about 1.1 µM and inactive = higher.

Recorded results for 6 molecules are shown here.
molecule	GI50
O=c1c2cc(Br)ccc2nc(-c2ccccc2)n1NCC1(O)OCC(O)C(O)C1O (stereo unspecified)	> 100 µM (inactive)
O=C(CCc1cc(-c2ccc(F)cc2)n[nH]1)N(Cc1ccccc1)Cc1ccccc1	> 100 µM (inactive)
CO/N=C1\CC(NC(=O)C(F)(F)F)c2ccsc21 (stereo unspecified)	> 100 µM (inactive)
CCOC(=O)Cn1c(=O)ccn(COCCO)c1=O	> 100 µM (inactive)
O=C(CC1(O)C(=O)Nc2c(Cl)cc(Cl)cc21)c1ccc2ccccc2c1 (stereo unspecified)	6.92 µM (inactive)
Cc1cccc(C2=NC(C)(C)C(C)(C)N=C2c2cccc(C)n2)n1	> 100 µM (inactive)

Record Nc1ncnc2c1ncn2C1OC(CO)C(O)C1NS(=O)(=O)c1ccccc1 (stereo unspecified) ; system U-251; GI50 = > 100 µM (inactive)

Record N=C1OC(c2c[nH]c3ccc(OCc4ccccc4)cc23)C(O)=C1O (stereo unspecified) ; system U-251; GI50 = > 100 µM (inactive)

Record `C/C(=N\Nc1nc2ccccc2s1)c1cccnn1` ; system U-251; GI50 = 3.68 µM (inactive)

Record `COC(=O)C1(C(=O)OC)CC2=C(S(=O)(=O)c3ccccc3)C[C@@H](C#N)[C@H]2C1` ; system U-251; GI50 = > 100 µM (inactive)

Record `C#CCN1CCN(C(=S)N/N=C(\C)c2ccccn2)CC1` ; system U-251; GI50 = 0.0189 µM (active)

###

- Test system: SF-295
- method description: NCI tumour cell line growth inhibition, 48 h
The source made the active and inactive calls. Rule as the data show it: active = GI50 up to about 1.1 µM and inactive = higher.
Can you answer with just one of these options? Yes = active, No = inactive

compound	assigned label
COC(=O)[C@]1(C)CCC[C@]2(C)C3CC4OOC3(C=C4C(C)(C)O)CCC21 (stereo not given in full)	No
CCOC(=O)C(=O)C(C#N)c1ccc(Cl)cc1 (stereo not given)	No

QUERY: Outcome? `C/C(=N\Nc1nc2ccccc2s1)c1cccnn1`
RESULT: No

QUERY: Outcome? `Cc1cccc(C2=NC(C)(C)C(C)(C)N=C2c2cccc(C)n2)n1`
RESULT: No

QUERY: Outcome? C[C@@H](CC(=O)O)OC1OC(COC(=O)C(C)(C)C)C(OC(=O)C(C)(C)C)C(OC(=O)C(C)(C)C)C1OC(=O)C(C)(C)C (stereo not given in full)
RESULT: No

QUERY: Outcome? `O=C(/C=C/C(=O)N1CCCC1)N1CCCC1`
RESULT: No

QUERY: Outcome? `O=C(O)c1ccccc1Sc1ccccc1[N+](=O)[O-]`
RESULT: No

QUERY: Outcome? `COc1ccc(C(=O)O)c(Cc2ccc3ccccc3c2)c1`
RESULT: No

QUERY: Outcome? COc1ccc(C2SCC(=O)N2NC2=NC(=O)CC(=O)N2)cc1 (stereo not given)
RESULT: No

QUERY: Outcome? `O=C(Nc1ccc(Cl)cc1)Oc1ccc(C(=S)Nc2ccc(Br)cc2)cc1`
RESULT: Yes

###

A collection of compounds and their measured GI50
- Test system: KM-20L2
- method description: NCI tumour cell line growth inhibition, 48 h
Activity calls are given as the source filed them. Cut-off read from the data, not from the text of the source: active = GI50 up to about 1.1 µM and inactive = higher.

Recorded results for 4 compounds are shown here.
compound	target	GI50
CC1(C)OC2OC(/C=C/[N+](=O)[O-])C3OC(C)(C)OC3C2O1 (stereo not given)	KM-20L2	19.5 µM (inactive)
CC1(c2cccc3c2C2(O)C=CC4(CCC32)OCCO4)OCCO1 (stereo not given)	KM-20L2	> 100 µM (inactive)
CC[N+](C)(CC)CC(C)(C)C(=O)/C=C/c1ccc(/C=C/C(=O)C(C)(C)C[N+](C)(CC)CC)cc1	KM-20L2	> 100 µM (inactive)
NC(=O)c1ccccc1NC(=O)C(=O)C(C(=O)c1ccc(Cl)c(Cl)c1)C1OC(=O)c2ccccc21 (stereo not given)	KM-20L2	46.9 µM (inactive)

Now consider a different compound.
Record `CCOC(=O)c1cc(=O)n(C)c(=O)n1C` ; system KM-20L2; GI50 = > 100 µM (inactive)

###

- Tested on: OVCAR-8
- method description: NCI tumour cell line growth inhibition, 48 h
Calls of active or inactive are those of the source. Rule as the data show it: active = GI50 up to about 1.1 µM and inactive = higher.
measured metric: GI50

compound	GI50
O=C1C(c2c(O)[nH]c3ccc(I)cc23)=Nc2ccccc21	2.15 µM (inactive)
Nc1c2c(nc3ccccc13)CCCc1ccccc1-2	14.1 µM (inactive)
N#CC(C(=N/NC(N)=S)/C(=N/NC(N)=S)C(C#N)c1ccc(Cl)cc1)c1ccc(Cl)cc1 (configuration not stated)	53.8 µM (inactive)
COC(=O)c1c2cccccc-2c(Cc2c3cccccc-3c(C(=O)OC)c2O)c1O	> 100 µM (inactive)
CN(C)CC1CC/C(=C\c2ccc3c(c2)OCO3)C1=O (configuration not stated)	8.61 µM (inactive)

Short answer for `CNC(=S)NC(=S)N(C)C` : GI50 was 4.94 µM (inactive)

Short answer for `NC1=CN(CCCO)C2=N/C(=C\c3ccccc3)C(=O)N12` : GI50 was > 100 µM (inactive)

###

A collection of compounds and their measured GI50
- Test system: UO-31
- method description: NCI tumour cell line growth inhibition, 48 h
Activity calls are given as the source filed them. Cut-off read from the data, not from the text of the source: active = GI50 up to about 1.1 µM and inactive = higher.

compound	GI50
COC(=O)[C@]1(C)CCC[C@]2(C)C3CC4OOC3(C=C4C(C)(C)O)CCC21 (stereo partly drawn)	> 10 µM (inactive)

Short answer for `Nc1ncc(Cc2nn3c(COc4ccc(Cl)cc4)nnc3s2)s1` : GI50 was > 100 µM (inactive)

Short answer for `COc1cc2c(c(OC)c1)C(=O)C(=O)C(CC1(C)OCCCO1)=C2` : GI50 was 12.7 µM (inactive)

Short answer for `O=[N+]([O-])c1ccc(/C=N/n2c(CO)nc3ccccc32)o1` : GI50 was 8.32 µM (inactive)
